Value source: the supplement of paper PMC9170038

# Test system: K4 kissing-loop RNA reporter;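 also: bound reporter read as fluorescence of individual clusters on recovered sequencing chips by microscopy, with normalized cluster intensities fitted with a binding model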
# protocol_details: apparent KD of K4 kissing-loop reporter; higher = weaker reporter binding
# experimental_parameters: Eterna round: R107; input ligand: theophylline 20 uM
Quick reference for apparent KD of K4 kissing-loop reporter among some sequences
Please give a number only; it is taken to be in nM.

Use these answered entries as a reference point.
macromolecule_sequence	experimental_system	unit_spec	apparent KD of K4 kissing-loop reporter
GGCACGGGCUCGGCCGCCACUCCCGCGGGUCGAAAGGUCCGCUACUGAGUGAUGUUCGGUUGGAGGAGGACCGGGAGCCCGUGCC [#2 Exclusion - Tryptophan B Attempt #23 (HarryS)]	K4 kissing-loop RNA reporter	nM	99.9
AAGCAGUCCCUCGAAGCCAUCGAAGAUGGGCGAGGACCGGUACGGCCGCCACUCGGAGUGAUGUUCCGAAGACUGCAAAAUAAAA [MatMod 3 - Jieux - Exclusion - Tryptophan A]	K4 kissing-loop RNA reporter	nM	273
GGCAGUGAUGUUGCCUAAGCAACGCAUGCGGAGGAUAUUCGUUCGGGAAGAAGGCCGCAGCGUUCUCUCGCGAGUGAUGUUCGCA [Same State FMN A GF 22]	K4 kissing-loop RNA reporter	nM	166

Tell me reported apparent KD of K4 kissing-loop reporter for AAGUGAUGUUGUAGUGAUGUUGUGAUGUUGCAGGAUAUAUAGUGAUGUAGAAGGGUAUGUGCAGUGUUGUUGUUUGAGUGUUGAU [twwumullin] , tested with K4 kissing-loop RNA reporter.
68.6

Try this sequence next: UUAAUAAUUCAAGGAUAUGUUUUCUAUUUCGAGUGAUGUUCGGUAUUAAUAAAUUUAAUAGAUUAUACAGAAGGUGAUGGAUAGU [Cynwulf-mod#5]
99.1

Try this sequence next: CUCCAACUUGAUGAUACCAGAGAGGAGGAAGUGAUGUUGACUCCGGCUACAUACUGGCGACUCCCUUGGCAGCAUUACGUCAUCC [theeternabot_sameState_KL_Theo_B_3]
417

Try this sequence next: AAAUUCUUUUUUUUAUUUAACUUUUCAGAAGGAGCGUGGUAGUACACAGGUAGGUCGCUGAAUAUAAGACUAGUGAUGUUAGUUA [JR_SSArginiA_Sub009]
215

Try this sequence next: AAUAAGGUCGCCGAUACCAGCGCAGGCAGAGCAAAGCUCUGCCGGGUAGUGAUGUUACCGCGCCCUUGGCAGCGGUGGCACGACC [Omei KL Theo B SS C v1]
398

Try this sequence next: AUGCUUCAGUAAGGAUAUGGAGGCAGAGUGAAGAUUGUCGUGUAACCGAGUUAAGUGAUGUUUGAUCCAGAAGGUACAUGCGUGU [theeternabot_exclusion_KL_FMN_B_15]
379

Try this sequence next: UAGUCCUAGUGAUCCUUAUCAAGUGGUGGGCGAGGACCGGUACGGCCGCCACUCGACUAUGCAGUGAUGUUGCAAUCCGGACAAU [Exclusion - Tryptophan A (Freestyle 13)]
243

Try this sequence next: GCGGGCCCUGGAGGAUAUGAGUCGAGUGAUGUUCGGCGGUCCAUGCCGAUGCGGCGUUAUGCCCUUUUAGAAGGCCAGGGUCCGC [#2 Exclusion - FMN B Attempt #8 (HarryS)]
302

Try this sequence next: UAGAGUCACAAGACAGUGAUGUUGUCUACUGAGGAUAUCAUGAAUAUGAGAAGGCAGUGUUGGAGGUCUCUAACAACAGACUCUG [FMN A SS t3]
370
